Answer each item with its documented viability, T/C.
test system: 885724-159-R-J1-PDC complex spheroid viability; experiment: Anticancer human tumor 885724-159-R-J1-PDC patient-derived pancreatic adenocarcinoma cell line growth inhibition [POLQ]; conditions: second compound 10 µM; first compound 0.316 µM; stronger effect = lower value
Write it as a number; the unit % goes unstated.

Suppose we examine the compound O=C(c1cc(Cc2n[nH]c(=O)c3ccccc23)ccc1F)N1CCN(C(=O)C2CC2)CC1 + Cc1cccc(N(C)C(=O)C2C(O)CCN2c2nc(C)cc(C(F)(F)F)c2C#N)c1 ; what viability, T/C value has been reported?
109

Also C=CC(=O)N1CCN(c2nc(=O)n(-c3c(C)ccnc3C(C)C)c3nc(-c4c(O)cccc4F)c(F)cc23)C(C)C1 (stereo not given) + COC1C(OC(N)=O)C(O)C(Oc2ccc3c(O)c(NC(=O)c4ccc(O)c(CC=C(C)C)c4)c(=O)oc3c2C)OC1(C)C , if possible.
106

Another compound to check: CCc1cc2c(N3CCc4c(cc(Cn5ccnc5)cc4-c4cn(C)nc4C(F)(F)F)C3=O)ccnc2c(OC)n1 + COC1C(OC(N)=O)C(O)C(Oc2ccc3c(O)c(NC(=O)c4ccc(O)c(CC=C(C)C)c4)c(=O)oc3c2C)OC1(C)C
76.6

Then this compound: O=C(c1cc(Cc2n[nH]c(=O)c3ccccc23)ccc1F)N1CCN(C(=O)C2CC2)CC1 + Nc1ccc(C#CCN(C(=O)Cc2ncc(C(F)(F)F)cc2C(F)(F)F)c2ccc(F)cc2)nn1
87.4

Entry to check: C=CCn1c(=O)c2cnc(Nc3ccc(N4CCN(C)CC4)cc3)nc2n1-c1cccc(C(C)(C)O)n1 + COC1C(OC(N)=O)C(O)C(Oc2ccc3c(O)c(NC(=O)c4ccc(O)c(CC=C(C)C)c4)c(=O)oc3c2C)OC1(C)C
58.6

Ok, now O=c1[nH]cc(F)c(=O)[nH]1 + COC1C(OC(N)=O)C(O)C(Oc2ccc3c(O)c(NC(=O)c4ccc(O)c(CC=C(C)C)c4)c(=O)oc3c2C)OC1(C)C
92.9

Entry COc1cc2cc(C(=O)CCC(=O)O)sc2cc1OC + COC1C(OC(N)=O)C(O)C(Oc2ccc3c(O)c(NC(=O)c4ccc(O)c(CC=C(C)C)c4)c(=O)oc3c2C)OC1(C)C please
111

Another: CCc1cc2c(N3CCc4c(cc(Cn5ccnc5)cc4-c4cn(C)nc4C(F)(F)F)C3=O)ccnc2c(OC)n1 + Nc1ccc(C#CCN(C(=O)Cc2ncc(C(F)(F)F)cc2C(F)(F)F)c2ccc(F)cc2)nn1
82.2

Try the compound CCCS(=O)(=O)Nc1ccc(F)c(C(=O)c2c[nH]c3ncc(-c4ccc(Cl)cc4)cc23)c1F + Nc1ccc(C#CCN(C(=O)Cc2ncc(C(F)(F)F)cc2C(F)(F)F)c2ccc(F)cc2)nn1
133

Entry to check: O=C(Nc1ccc(O)c(NS(=O)(=O)c2ccc(F)cc2)c1)c1ccc(-c2ccccc2)cc1 + Nc1ccc(C#CCN(C(=O)Cc2ncc(C(F)(F)F)cc2C(F)(F)F)c2ccc(F)cc2)nn1
103

---

Give viability, T/C for every item shown.
test system: 885724-159-R-J1-PDC complex spheroid viability; test: Anticancer human tumor 885724-159-R-J1-PDC cell line growth inhibition [POLQ]; settings: second compound 0.316 µM; first compound 0.000316 µM; stronger effect = lower value;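 further: spheroids exposed to compounds for 7 days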
Reply with just the number (in %).

Form field: reported viability, T/C of CC[C@@]1(O)C(=O)OCc2c1cc1n(c2=O)Cc2cc3c(CN(C)C)c(O)ccc3nc2-1 + Cc1cccc(N(C)C(=O)C2C(O)CCN2c2nc(C)cc(C(F)(F)F)c2C#N)c1
117

Next compound: CC[C@@]1(O)C(=O)OCc2c1cc1n(c2=O)Cc2cc3c(CN(C)C)c(O)ccc3nc2-1 + COC1C(OC(N)=O)C(O)C(Oc2ccc3c(O)c(NC(=O)c4ccc(O)c(CC=C(C)C)c4)c(=O)oc3c2C)OC1(C)C
94.4

Do the same for Cn1ncnc1[C@H]1c2n[nH]c(=O)c3cc(F)cc(c23)N[C@@H]1c1ccc(F)cc1 + Nc1ccc(C#CCN(C(=O)Cc2ncc(C(F)(F)F)cc2C(F)(F)F)c2ccc(F)cc2)nn1 please
99.9

The origin of these recorded values is PubChem BioAssay AID1963832.
